- RUN DESCRIPTION: qHTS RealTime-Glo MT Cell Viability Assay in HEK293 cells - 40 hour (AID 1224874); note: % is set by controls: 0 for no effect and ±100 for the full control effect; nearly all actives have a fitted effect of over 50% in size
- STATED CONDITIONS: RealTime-Glo luminescence; stronger effect = lower value
- Text: U.S. Tox21 Program National Center for Advancing Translational Sciences [NCATS] NIH Chemical Genomics Center [NCGC] U.S. Environmental Protection Agency [EPA] National Institutes of Environmental Health Sciences [NIEHS] National Toxicology Program [NTP] U.S. Food and Drug Administration [FDA] Tox21 Assay Overview: Measure of cell viability is critical in the cell-base assay. Analysis of cell viability is necessary for the characterization of cell responses to cytotoxic drugs and environmental stress. […]
Results filed as inconclusive are left out.
compounds and their reported max response

{"columns": ["COMPOUND", "READOUT UNIT", "max response"],
 "data": [
  ["O=[N+]([O-])c1cc[n+]([O-])cc1", "%", -21.4],
  ["O=C(O)C(c1ccc(Cl)cc1)c1ccc(Cl)cc1", "%", -1.91],
  ["C=C(C)C(=O)OCCOc1ccccc1", "%", 8.99],
  ["N#CCCNCCC#N", "%", 6.76],
  ["Cc1ccc(C(=O)C(C)CN2CCCCC2)cc1 (stereo unspecified)", "%", 11.5],
  ["CC(C)CCCCCCOC(=O)c1ccc(C(=O)OCCCCCCC(C)C)c(C(=O)OCCCCCCC(C)C)c1", "%", -0.306],
  ["CCCC[C@H]1CN(CC2CCOCC2)C(=O)OC12CCN(C1(C)CCN(C(=O)c3c(C)ncnc3C)CC1)CC2", "%", 0.654],
  ["O=S1(=O)c2cccc3cccc(c23)N1CCCN1CCN(c2ccc(F)cc2)CC1", "%", -11.7],
  ["CCOC(=S)SSC(=S)OCC", "%", 1.68],
  ["C=CC[N+]1([C@H]2C[C@H]3[C@@H]4CC[C@H]5C[C@H](OC(C)=O)[C@@H](N6CCCCC6)C[C@]5(C)[C@H]4CC[C@]3(C)[C@H]2OC(=O)CC)CCCCC1", "%", -20.7],
  ["COc1ccc2[nH]c(S(=O)Cc3ncc(C)c(OC)c3C)nc2n1 (stereo unspecified)", "%", -17.3]
]}

---

- RUN DESCRIPTION: qHTS assay to identify small molecule agonists of H2AX - cell viability counter screen (AID 1224847); note: nearly all actives have a fitted effect of over 30% in size
- STATED CONDITIONS: CHO-K1 viability, CellTiter-Glo luminescence, 3 h; series mostly up to 154 µM
Inconclusive results are not listed. Active and inactive are the calls of the source. Calls follow the shape of the full dose curve.
Labels: active, inactive

{"columns": ["COMPOUND", "CATEGORY"],
 "data": [
  ["CCN(CC)CCNC(C(=O)OCCC(C)C)c1ccccc1 (stereo not drawn)", "inactive"],
  ["Oc1ccc(C(O)CNCCCCCCNCC(O)c2ccc(O)c(O)c2)cc1O (stereo not drawn)", "inactive"],
  ["c1ccc(OCc2ccc(CCCN3CCOCC3)cc2)cc1", "inactive"],
  ["O=C(O)/C=C/c1cnc[nH]1", "inactive"],
  ["CC(CN)CCCN (stereo not drawn)", "active"],
  ["CC[C@]12CCCN3CCc4c(n(c5ccccc45)C(=O)C1)[C@@H]32", "inactive"],
  ["COC(=O)CSc1cc(N=c2sc(=O)n3n2CCCC3)c(F)cc1Cl", "inactive"],
  ["Cl/C(=C\\n1cncn1)c1ccc(Cl)cc1Cl", "inactive"],
  ["CN(C(=O)CCCOc1ccc2[nH]c(=O)ccc2c1)C1CCCCC1", "inactive"],
  ["NCCCOCCOCCOCCCN", "inactive"],
  ["Cc1ccc(O)c([C@H](CCN(C(C)C)C(C)C)c2ccccc2)c1", "inactive"],
  ["CCCCCCCCCC(=O)OCC", "inactive"],
  ["CN(C)C/C=C(/c1ccc(Br)cc1)c1cccnc1", "inactive"],
  ["CN(c1nccc(=O)[nH]1)C1CCN(c2nc3ccccc3n2Cc2ccc(F)cc2)CC1", "inactive"],
  ["CC(=O)SCc1ccco1", "inactive"],
  ["Oc1ccc(O)c2c(O)cccc12", "inactive"],
  ["O=C1Nc2cc(Cl)ccc2Oc2ccccc21", "inactive"],
  ["CC(=O)NCCCS(=O)(=O)O", "inactive"],
  ["CNCC[C@@H](Oc1ccccc1C)c1ccccc1", "inactive"],
  ["CC(C)c1cccc(C(C)C)c1NC(=O)NS(=O)(=O)c1cc(C(C)(C)O)co1", "inactive"],
  ["CC[C@H](C)[C@H](N)C(=O)O", "inactive"],
  ["C=CCCCCCC", "inactive"],
  ["O=C(c1ccccc1)c1ccc2n1CCC2C(=O)O (stereo not drawn)", "inactive"],
  ["SC1CCCC1", "inactive"],
  ["CC(C(=O)O)c1ccc(C(=O)c2ccccc2)s1 (stereo not drawn)", "inactive"],
  ["O=C(O)C(c1ccc(Cl)cc1)c1ccc(Cl)cc1", "inactive"],
  ["N#Cc1cc2ccccc2c2ccccc12", "inactive"],
  ["O=C(c1ccc(O)cc1)c1ccc(O)cc1", "inactive"],
  ["CN(C)CCCNCCCN", "inactive"],
  ["CCC(=O)OC(C)(C)C1CC=C(C)CC1 (stereo not drawn)", "inactive"],
  ["CC(C)CCCC(C)CCO (stereo not drawn)", "inactive"],
  ["C=Cc1c(C)c2cc3[nH]c(cc4nc(cc5nc(cc1[nH]2)C(C)=C5CCC(=O)O)C(CCC(=O)O)=C4C)c(C)c3C=C", "inactive"],
  ["CC(=O)Nc1ccc(/C=N/NC(N)=S)cc1", "inactive"],
  ["CC/C(=C\\C(=N/O)C(N)=O)C(C)[N+](=O)[O-] (stereo not drawn)", "inactive"],
  ["O=C(O)c1cccc(N(Cc2cccnc2)c2ccc(OC(F)F)c(OC(F)F)c2)c1", "inactive"],
  ["CCN1CCC[C@H]1CNC(=O)c1c(OC)ccc(Br)c1OC", "inactive"],
  ["CC(=O)OCCc1ccccc1", "inactive"],
  ["CC(=O)O[C@H]1C[C@@H]2CC[C@@H]3[C@H](CC[C@@]4(C)[C@H]3C[C@H]([N+]3(C)CCCCC3)[C@@H]4OC(C)=O)[C@@]2(C)C[C@@H]1N1CCCCC1", "inactive"],
  ["CCCCOC(=O)c1ccccc1C(=O)OCC(CC)CCCC (stereo not drawn)", "inactive"],
  ["CCCCCCCCN(C)C", "inactive"],
  ["CC(=O)c1ccc2c(c1)[C@H](NC(=O)c1ccc(F)cc1)[C@@H](O)C(C)(C)O2", "inactive"],
  ["CCCCCCCCCCCCCCC1CO1 (stereo not drawn)", "inactive"],
  ["CCCCCOC(=O)c1ccc(O)cc1", "active"],
  ["O=C(Cl)c1c(Cl)cccc1Cl", "inactive"],
  ["COc1ccc([C@@H]2Sc3ccccc3N(CCN(C)C)C(=O)[C@@H]2OC(C)=O)cc1", "inactive"],
  ["Cc1c(Cn2ccnc2)c2ccccc2n1CCC(=O)O", "inactive"],
  ["CCCCOC(O)CC (stereo not drawn)", "inactive"],
  ["COCCOCCOCCOCCOC", "inactive"],
  ["c1ccc(-c2nc[nH]c2-c2ccccc2)cc1", "inactive"],
  ["CC(C)CCCCCCOC(=O)c1ccc(C(=O)OCCCCCCC(C)C)c(C(=O)OCCCCCCC(C)C)c1", "inactive"],
  ["CCOC(=O)C1=C(C)NC(C)=C(C(=O)OC)C1c1cccc([N+](=O)[O-])c1 (stereo not drawn)", "inactive"],
  ["FC(F)(F)C(F)(F)C(F)(F)C(F)(F)C(F)(F)C(F)(F)CCI", "inactive"],
  ["C1=Cc2ccccc2C1", "inactive"]
]}
